Cited source for all entries: patent US12448383B2

# Test system: Respiratory syncytial virus recombinant with luciferase (RSV-Luc5) in HEp-2 cells
# assayMethodText: microbe, parasite or virus in culture
# Assay type: cell-based
# conditions: human respiratory syncytial virus, HEp-2, 72 h, read-out: RSV Hep2 EC50
pEC50: −log10 of the molar value.
List of pEC50 values.
readoutName: pEC50

| compound | censorSymbol | measuredNumber |
| --- | --- | --- |
| CC12CCC(C1)C(C)(C)C2OC(=O)OC[C@H]1O[C@@](C#N)(c2ccc3c(N)ncnn23)[C@H](O)[C@@H]1O (mixture of isomers) | = | 5.63 |
| CC(C)(C)OC(=O)OC[C@H]1O[C@@](C#N)(c2ccc3c(N)ncnn23)[C@H](O)[C@@H]1O | = | 5.63 |
| CC(C)OC(=O)Nc1ncnn2c([C@]3(C#N)O[C@H](COC(=O)OC(C)C)[C@@H](OC(=O)OC(C)C)[C@H]3O)ccc12 | < | 4.30 |
| CC(C)(C)COC(=O)OC[C@H]1O[C@@](C#N)(c2ccc3c(=N)n(COP(=O)(O)OCc4ccccc4)cnn23)[C@H](O)[C@@H]1O | = | 5.54 |
| N#C[C@@]1(c2ccc3c(N)ncnn23)O[C@H](COC(=O)OC2CNC2)[C@@H](O)[C@H]1O | = | 5.69 |
| N#C[C@@]1(c2ccc3c(N)ncnn23)O[C@H](COC(=O)Oc2ccccc2)[C@@H](O)[C@H]1O | = | 6.38 |
| CC(C)OC(=O)OC[C@H]1O[C@@](C#N)(c2ccc3c(N)ncnn23)[C@@H]2OC(=O)O[C@@H]21 | = | 6.07 |
| CC1(C)CC(OC(=O)OC[C@H]2O[C@@](C#N)(c3ccc4c(N)ncnn34)[C@H](O)[C@@H]2O)C1 | = | 6.49 |
| CC[C@@H](C)OC(=O)OC[C@H]1O[C@@](C#N)(c2ccc3c(N)ncnn23)[C@H](O)[C@@H]1O | = | 6.18 |

###

# assayMethodText: GI S9 stability
# Format: in vitro ADME
# conditions: human, s9, pH 7.4
readoutName: log10 of half-life at 2 µM (log10 of the value in min)

| structure | log10 of half-life at 2 µM |
| --- | --- |
| CC(C)OC(=O)OC[C@H]1O[C@@](C#N)(c2ccc3c(N)ncnn23)[C@H](O)[C@@H]1O | 2.40 |
| N#C[C@@]1(c2ccc3c(N)ncnn23)O[C@H](COC(=O)Oc2ccccc2)[C@@H](O)[C@H]1O | 1.73 |
| CCOC(=O)OC[C@H]1O[C@@](C#N)(c2ccc3c(N)ncnn23)[C@H](O)[C@@H]1O | 2.85 |
| CCC(CC)COC(=O)OC[C@H]1O[C@@](C#N)(c2ccc3c(N)ncnn23)[C@H](O)[C@@H]1O | 1.52 |
| N#C[C@@]1(c2ccc3c(N)ncnn23)O[C@H](COC(=O)OCc2ccccc2)[C@@H](O)[C@H]1O | 1.55 |
| CC(C)OC(=O)OC[C@H]1O[C@@](C#N)(c2ccc3c(N)ncnn23)[C@H](OC(=O)C(C)C)[C@@H]1OC(=O)C(C)C | 0.16 |
| CC(C)COC(=O)OC[C@H]1O[C@@](C#N)(c2ccc3c(N)ncnn23)[C@H](O)[C@@H]1O | 2.05 |
| CC(C)(C)OC(=O)OC[C@H]1O[C@@](C#N)(c2ccc3c(N)ncnn23)[C@H](O)[C@@H]1O | 2.64 |
| CC(C)COC(=O)OC[C@H]1O[C@@](C#N)(c2ccc3c(N)ncnn23)[C@H](OC(=O)C(C)C)[C@@H]1OC(=O)C(C)C | 0.00 |
| CC(C)(C)COC(=O)OC[C@H]1O[C@@](C#N)(c2ccc3c(=N)n(COP(=O)(O)O)cnn23)[C@H](O)[C@@H]1O | 1.44 |
| COC(C)(C)COC(=O)OC[C@H]1O[C@@](C#N)(c2ccc3c(N)ncnn23)[C@H](O)[C@@H]1O | 2.84 |
| N#C[C@@]1(c2ccc3c(N)ncnn23)O[C@H](COC(=O)OC2CCCCCCC2)[C@@H](O)[C@H]1O | 1.75 |
| COc1ccc(OC(=O)OC[C@H]2O[C@@](C#N)(c3ccc4c(N)ncnn34)[C@H](O)[C@@H]2O)cc1 | 1.73 |
| N#C[C@@]1(c2ccc3c(N)ncnn23)O[C@H](COC(=O)OC2CC2)[C@@H](O)[C@H]1O | 2.49 |
| CC(C)COC(=O)Nc1ncnn2c([C@]3(C#N)O[C@H](COC(=O)OCC(C)C)[C@@H](O)[C@H]3O)ccc12 | 2.20 |
| CC(C)OC(=O)Nc1ncnn2c([C@]3(C#N)O[C@H](COC(=O)OC(C)C)[C@@H](OC(=O)OC(C)C)[C@H]3O)ccc12 | 1.49 |
| CC(C)(C)COC(=O)OC[C@H]1O[C@@](C#N)(c2ccc3c(N)ncnn23)[C@H](O)[C@@H]1O | 1.91 |
| N#C[C@@]1(c2ccc3c(N)ncnn23)O[C@H](COC(=O)OC2CCCC2)[C@@H](O)[C@H]1O | 1.76 |
